System: Neuregulin-1 EGF-like domain
Test: binders of neuregulin-1 EGF-like domain, primary screen, biochemical, small-molecule microarray, 635 nm fluorescence (AID 1081);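 further: binding of the protein to compounds printed on small-molecule microarray slides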
Conditions: small-molecule microarray binding, higher = more signal
Measured property: composite z-score

INSERT INTO assay_data (molecule, assay_value) VALUES
  ('NCCCCCCNC(=O)[C@H]1C[C@H]2C(=O)NCC(=O)N2[C@H]1c1cccc(OCCO)c1', 1.13),
  ('C=C[C@@H](COC(C)=O)N(Cc1ccccc1[N+](=O)[O-])S(=O)(=O)c1ccc(Br)cc1', 0.974),
  ('CC(C)C(O)C1C=CC2C(=O)N(c3ccccc3)C(=O)C2N1Nc1ccc(C#N)cc1 (stereo not drawn)', 1.23),
  ('C=CCC(OC(C)=O)[C@@H]1[C@@H](N(Cc2cc3ccccc3o2)C(=O)c2ccc(C)cc2)c2cc(OCCCO)ccc2N1C(=O)c1ccc2ccccc2c1 (stereo partly drawn)', 0.38),
  ('N#Cc1ccc(NN2C(C(O)C3CCCCC3)C=CC3C(=O)N(c4ccccc4)C(=O)C32)cc1 (stereo not drawn)', 1.33),
  ('COc1ccc(C#Cc2ccc3c(c2)[C@]2(C(=O)N3)[C@H](c3ccc(O)cc3)N3[C@H](c4ccccc4)[C@H](c4ccccc4)OC(=O)[C@H]3[C@@H]2C(=O)NC[C@H](O)c2ccccc2)cc1', 1.15),
  ('C=CCOC(=O)[C@@H]1[C@H]2C(=O)O[C@H](c3ccccc3)[C@H](c3ccccc3)N2[C@H](c2ccc(OCCOC(=O)[C@@H]3C[C@@H]4C(=O)N[C@@H](Cc5ccccc5)C(=O)N4[C@@H]3c3cccc(OCCO)c3)cc2)[C@@]12C(=O)Nc1ccc(I)cc12', 1.06),
  ('O=C1O[C@H](c2ccccc2)[C@H](c2ccccc2)N2[C@H]1[C@@H](C(=O)N1CCN(c3ncccn3)CC1)[C@]1(C(=O)Nc3ccccc31)[C@H]2c1ccc(OCCO)cc1', 1.31),
  ('COc1cc(CO)ccc1OC(C)=O', 0.707),
  ('CCOC(=O)C1=C[C@@H](C(C)C)N(S(=O)(=O)c2ccc(C)cc2)[C@H]1c1ccc(C(C)C)cc1', 0.683),
  ('CCOC(=O)[C@H]1C/C=C/C[C@H](C(=O)OCC)C(=O)O[C@H]2[C@@H](OC)O[C@H](CO)[C@@H](OC(=O)Nc3ccc4c(c3)OCO4)[C@@H]2OC1=O', 1.25),
  ('COCCOC(=O)N1C(=O)[C@@]2(c3cc(C#CCNC(N)=O)ccc31)[C@H](c1ccc(OCCO)cc1)N1[C@H](c3ccccc3)[C@H](c3ccccc3)OC(=O)[C@H]1[C@@H]2C(=O)N1CCc2cc(OC)c(OC)cc2C1', 0.371),
  ('Cc1ccccc1C(O)C1C=CC2C(=O)N(C)C(=O)C2N1N1CCCCC1 (stereo not drawn)', 1.38),
  ('COC(=O)[C@@]1(Cc2ccccc2)[C@H]2c3cc(C(=O)N(C)C)n(Cc4c(-c5ccccc5)noc4C)c3C[C@H]2CN1C(=O)c1ccccc1', 1.24),
  ('COC(=O)[C@@]1(Cc2ccc(OC)cc2)[C@H]2c3cc(C(=O)N4CCCC4)n(Cc4ccccn4)c3C[C@H]2CN1C(=O)c1ccccc1', 1.4),
  ('COC(=O)C[C@H]1O[C@]2(C(=O)N(Cc3ccccc3)c3ccc(NC(C)=O)cc32)[C@@H](C)[C@@H]1[Si](C)(C)c1ccc(OC)cc1', 0.882),
  ('COC(=O)[C@@]1(Cc2ccc(F)cc2)[C@H]2c3cc(C(=O)N(C)C)n(CCc4ccccn4)c3C[C@H]2CN1C(=O)c1ccccc1', 1.09),
  ('COc1ccc(CCNC(=O)[C@@]2(Sc3ccc(C)cc3)CC(=O)N(Cc3ccccc3Cl)[C@@H]2c2ccc(CO)cc2I)cc1', 0.883),
  ('C=C(COC)C(=O)CC[C@@H](OC(=O)c1cccnc1)c1ccc(CO)o1', 0.645),
  ('COCCOC(=O)N1C(=O)[C@@]2(c3cc(C#CCC(C(=O)OC)C(=O)OC)ccc31)[C@H](c1ccc(O)cc1)N1[C@H](c3ccccc3)[C@H](c3ccccc3)OC(=O)[C@H]1[C@@H]2C(N)=O', 1.32),
  ('CCOC(=O)C[C@H]1[C@H](OC(=O)Cc2ccc3c(c2)OCO3)[C@@H](NC(=O)c2ccc(-c3ccccc3)cc2)c2cc(OCCCO)ccc2N1C(=O)c1ccccc1', 0.797),
  ('[N-]=[N+]=NCc1ccccc1C[C@]1(C(=O)O)N=C(c2ccc(OCCCO)cc2)O[C@H]1c1ccccc1CN=[N+]=[N-]', 1.16),
  ('CC(=O)C1=CCC(c2ccccc2)N(S(=O)(=O)c2ccc(C)cc2)C1 (stereo not drawn)', 1.23),
  ('CC(C)C[C@@H]1NC(=O)[C@H]2C[C@@H](C(=O)NCCCCCCNC(=O)CS)[C@@H](c3cccc(OCCO)c3)N2C1=O', 1.32),
  ('CC(C)c1ccc(NN2C(C(O)c3cccc(O)c3)C=CC3C(=O)N(c4ccccc4)C(=O)C32)cc1 (stereo not drawn)', 1.3),
  ('CC(C)CNC(=O)[C@@]1(c2ccc([N+](=O)[O-])cc2)CC(=O)N(CC23CC4CC(CC(C4)C2)C3)[C@@H]1c1ccc(CO)cc1I', 1.29),
  ('COc1ccc(C(O)C2C=CC3C(=O)NC(=O)C3N2Nc2ccccn2)cc1OCc1ccccc1 (stereo not drawn)', 0.666),
  ('COCCOC(=O)N1C(=O)[C@@]2(c3cc(C#CCNC(N)=O)ccc31)[C@H](C(=O)N1CCc3cc(OC)c(OC)cc3C1)[C@H]1C(=O)O[C@H](c3ccccc3)[C@H](c3ccccc3)N1[C@@H]2c1ccc(OCCO)cc1', 0.172);
